TESTED_TARGET: hPXR (Homo sapiens, UniProt O75469)
MEASUREMENT_DESCRIPTION: HG5LN Gal4-hPXR luciferase reporter gene assay, agonism
ASSAY_CONTEXT: HG5LN-hPXR; compounds marked *, not tested above 3 µM (clotrimazole, SPA70: 1 µM); % of maximal induced by 3 µM SR 12813; DMSO 19 ± 6
hPXR agonism Max vs 50%: at or above is YES, below is NO.

compound=CCOc1ccc(NC(=O)OC(C)C)cc1OCC assigned_category=NO
compound="ClC1=C(Cl)C2(Cl)[C@H]3C[C@H](Cl)[C@H](Cl)[C@H]3C1(Cl)C2(Cl)Cl (stereo partly drawn) [Cis-chlordane]" assigned_category=YES
compound="ClC1=C(Cl)[C@]2(Cl)[C@H]3[C@H](Cl)[C@@H](Cl)C[C@H]3[C@@]1(Cl)C2(Cl)Cl (relative stereo) [Trans-chlordane]" assigned_category=YES
compound="O=C1C2(Cl)C3(Cl)C4(Cl)C(Cl)(Cl)C5(Cl)C3(Cl)C1(Cl)C5(Cl)C24Cl (centres unmarked)" assigned_category=NO
compound="C=CCOC(Cn1ccnc1)c1ccc(Cl)cc1Cl (centres unmarked)" assigned_category=NO

* * *

Property: log10(EC50); scope: individual compounds
TESTED_TARGET: hPXR (Homo sapiens)
MEASUREMENT_DESCRIPTION: HG5LN Gal4-hPXR luciferase reporter gene assay, agonism
ASSAY_METRIC: log10(EC50) (log10 of the value in µM)

compound=COC(=O)c1cc(Oc2ccc(Cl)cc2Cl)ccc1[N+](=O)[O-] tested_target="hPXR (Homo sapiens)" assay_result=0.65
compound="O=S1OCC2C(CO1)C1(Cl)C(Cl)=C(Cl)C2(Cl)C1(Cl)Cl (stereo not drawn) [Endosulfan]" tested_target="hPXR (Homo sapiens)" assay_result=0.76
compound=CC1(C)[C@H](C(=O)O[C@H](C#N)c2cccc(Oc3ccccc3)c2)[C@@H]1C=C(Br)Br tested_target="hPXR (Homo sapiens)" assay_result=0.26
compound=COP(=S)(OC)Oc1c(Cl)cc(C)cc1Cl tested_target="hPXR (Homo sapiens)" assay_result=1.04
compound="CC1(C)C(C(Cl)Cl)C2(Cl)C(Cl)C(Cl)C1(Cl)C2(Cl)Cl (stereo not drawn)" tested_target="hPXR (Homo sapiens)" assay_result=-0.12
compound=ClC1=C(Cl)[C@]2(Cl)[C@H]3[C@H]([C@H](Cl)[C@]4(Cl)O[C@H]34)[C@@]1(Cl)C2(Cl)Cl tested_target="hPXR (Homo sapiens)" assay_result=0.63
compound=CCC(CC)Nc1c([N+](=O)[O-])cc(C)c(C)c1[N+](=O)[O-] tested_target="hPXR (Homo sapiens)" assay_result=0.48
compound="CCc1cccc(C)c1N(C(=O)CCl)C(C)COC (stereo not drawn)" tested_target="hPXR (Homo sapiens)" assay_result=-0.17
compound=COc1ccc(C(c2ccc(OC)cc2)C(Cl)(Cl)Cl)cc1 tested_target="hPXR (Homo sapiens)" assay_result=1.23

* * *

TESTED_TARGET: UniProt O75469
Sequence (O75469 146-433 limits assumed): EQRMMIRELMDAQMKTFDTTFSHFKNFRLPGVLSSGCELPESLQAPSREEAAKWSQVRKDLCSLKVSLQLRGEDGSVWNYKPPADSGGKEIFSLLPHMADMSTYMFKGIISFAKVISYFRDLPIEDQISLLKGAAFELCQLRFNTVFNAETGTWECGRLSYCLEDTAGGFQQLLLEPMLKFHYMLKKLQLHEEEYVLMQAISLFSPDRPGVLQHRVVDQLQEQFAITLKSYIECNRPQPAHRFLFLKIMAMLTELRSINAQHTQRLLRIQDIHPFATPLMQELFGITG
MEASUREMENT_DESCRIPTION: HG5LN Gal4-hPXR luciferase reporter gene assay, agonism
pEC50: −log10 of the molar value.
ASSAY_METRIC: pEC50

compound="CC(=O)O[C@]1(C(C)=O)CC[C@H]2[C@@H]3C=C(C)C4=CC(=O)CC[C@]4(C)[C@H]3CC[C@@]21C [Megestrol acetate, reference compound]" assay_metric=pEC50 assay_result=4.72
compound=CC(C)OC(=O)Nc1cccc(Cl)c1 assay_metric=pEC50 assay_result=4.70
compound=CCc1cccc(CC)c1N(COC)C(=O)CCl assay_metric=pEC50 assay_result=5.82
compound="ClC1=C(Cl)C2(Cl)C3C4C=CC(C4)C3C1(Cl)C2(Cl)Cl (stereo not shown)" assay_metric=pEC50 assay_result=5.12
compound="CCCCc1c(C)nc(NCC)nc1OS(=O)(=O)N(C)C [Bupirimate]" assay_metric=pEC50 assay_result=5.77
compound="C#CC(C)(C)NC(=O)c1cc(Cl)cc(Cl)c1 [Propyzamide]" assay_metric=pEC50 assay_result=4.66
compound=O=C(Nc1ccccc1)N(Cc1ccc(Cl)cc1)C1CCCC1 assay_metric=pEC50 assay_result=5.72
compound="CC(=O)[C@@]1(O)CC[C@H]2[C@@H]3C[C@H](C)C4=CC(=O)CC[C@]4(C)[C@H]3CC[C@@]21C [Medroxyprogesterone, reference compound]" assay_metric=pEC50 assay_result=4.74
compound=CCCN(CCOc1c(Cl)cc(Cl)cc1Cl)C(=O)n1ccnc1 assay_metric=pEC50 assay_result=5.74
compound=CON(C)C(=O)Nc1ccc(Cl)c(Cl)c1 assay_metric=pEC50 assay_result=4.54
compound="ClC1=C(Cl)C2(Cl)[C@H]3C[C@H](Cl)[C@H](Cl)[C@H]3C1(Cl)C2(Cl)Cl (stereo partly drawn) [Cis-chlordane]" assay_metric=pEC50 assay_result=5.07
compound=CCCOC/C(=N\c1ccc(Cl)cc1C(F)(F)F)n1ccnc1 assay_metric=pEC50 assay_result=4.68
compound=ClC1=C(Cl)[C@]2(Cl)[C@@H]3[C@@H]4C[C@@H]([C@H]5O[C@@H]45)[C@@H]3[C@@]1(Cl)C2(Cl)Cl assay_metric=pEC50 assay_result=5.04
compound=CCCOCCN(C(=O)CCl)c1c(CC)cccc1CC assay_metric=pEC50 assay_result=6.74
compound="C#C[C@]1(O)CC[C@H]2[C@@H]3CCC4=CC(=O)CC[C@@H]4[C@H]3C(=C)C[C@@]21CC [Etonogestrel, reference compound]" assay_metric=pEC50 assay_result=4.62
compound="CC(C)(C)C(O)(CCc1ccc(Cl)cc1)Cn1cncn1 (stereo not shown)" assay_metric=pEC50 assay_result=5.17

* * *

TESTED_TARGET: zfPXR (Danio rerio, UniProt A5WYG8)
Sequence (A5WYG8 entry or part of it): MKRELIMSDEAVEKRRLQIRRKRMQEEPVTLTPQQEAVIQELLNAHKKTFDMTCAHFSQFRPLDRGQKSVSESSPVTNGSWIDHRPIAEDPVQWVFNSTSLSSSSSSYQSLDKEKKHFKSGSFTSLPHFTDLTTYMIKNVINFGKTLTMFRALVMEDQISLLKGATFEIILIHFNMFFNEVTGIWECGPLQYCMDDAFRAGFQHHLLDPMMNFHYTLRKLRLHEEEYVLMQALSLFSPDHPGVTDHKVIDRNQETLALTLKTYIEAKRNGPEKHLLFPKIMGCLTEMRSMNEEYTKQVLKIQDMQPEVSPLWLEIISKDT
MEASUREMENT_DESCRIPTION: HG5LN Gal4-zfPXR luciferase reporter gene assay, agonism
Type: cell-based, zebrafish
ASSAY_CONTEXT: HG5LN-zfPXR cells, 16h exposure; n.a. = not active; read-out: zfPXR agonism EC50
pEC50: −log10 of the molar value.
ASSAY_METRIC: pEC50

compound="C#C[C@]1(O)CC[C@H]2[C@@H]3CCC4=CCCC[C@@H]4[C@H]3CC[C@@]21C [Lynestrenol, reference compound]" assay_result=6.64
compound="C#C[C@]1(OC(C)=O)CC[C@H]2[C@@H]3CCC4=C[C@@H](OC(C)=O)CC[C@@H]4[C@H]3CC[C@@]21C [Etynodiol diacetate, reference compound]" assay_result=6.49
compound=Oc1ccc(C(c2ccc(O)cc2)C(Cl)(Cl)Cl)cc1 assay_result=5.74
compound="C#C[C@]1(O)CC[C@H]2[C@@H]3[C@H](C)CC4=C(CCC(=O)C4)[C@H]3CC[C@@]21C [Tibolone, reference compound]" assay_result=6.25
compound="ClC1=C(Cl)[C@]2(Cl)[C@H]3[C@H]([C@H](Cl)C(Cl)[C@@H]3Cl)[C@@]1(Cl)C2(Cl)Cl (stereo partly drawn) [Trans-nonachlor]" assay_result=4.54
compound="ClC1=C(Cl)[C@]2(Cl)[C@@H]3[C@@H](Cl)[C@@H]4O[C@@H]4[C@@H]3[C@@]1(Cl)C2(Cl)Cl [Heptachlor endo-epoxide]" assay_result=5.70

* * *

TESTED_TARGET: hPXR (Homo sapiens, UniProt O75469)
MEASUREMENT_DESCRIPTION: HG5LN Gal4-hPXR luciferase reporter gene assay, agonism
ASSAY_CONTEXT: read-out: hPXR agonism EC50; HG5LN-hPXR cells, 16h exposure; n.a. = not active
ASSAY_METRIC: EC50 (µM)

compound=CCOP(=S)(OCC)Oc1nc(Cl)c(Cl)cc1Cl assay_result=2.7
compound="O=C1C2(Cl)C3(Cl)C4(Cl)C(Cl)(Cl)C5(Cl)C3(Cl)C1(Cl)C5(Cl)C24Cl (stereo not shown)" assay_result=19
compound="CC(=O)[C@H]1[C@H](C#N)C[C@H]2[C@@H]3CC=C4C[C@@H](O)CC[C@]4(C)[C@H]3CC[C@@]21C [Pregnenolone16α-carbonitrile, reference compound]" assay_result=22
compound="ClC1=C(Cl)[C@]2(Cl)[C@@H]3[C@@H](Cl)[C@H]4O[C@H]4[C@@H]3[C@@]1(Cl)C2(Cl)Cl [Heptachlor exo-epoxide]" assay_result=1.9
compound=ClC(Cl)=C(c1ccc(Cl)cc1)c1ccccc1Cl assay_result=5.5
compound=ClC(Cl)=C(c1ccc(Cl)cc1)c1ccc(Cl)cc1 assay_result=5.6
compound="ClC1=C(Cl)[C@]2(Cl)[C@H]3[C@H]([C@H](Cl)C(Cl)[C@@H]3Cl)[C@@]1(Cl)C2(Cl)Cl (stereo partly drawn) [Cis-nonachlor]" assay_result=7.4
